Source: patent US10358453B2

# Tested on: RSV subgenomic replicon 395 HeLa and APC126
# ASSAY SUMMARY: RSV subgenomic replicon assay (Renilla luciferase)
# Type: cell-based
# EXPERIMENTAL CONTEXT: human respiratory syncytial virus; RSV replicon cells (395 HeLa 7 days or APC126 3 days); Table G = less than 1 μM, Table H = equal to or higher than 1 μM and less than 50 μM
Catalogue of EC50 values

{"columns": ["COMPOUND", "EC50"],
 "data": [
  ["COc1cc(C(=O)NC[C@](O)(c2cc3c(c(-c4ccc(F)cc4)n2)OC[C@]3(N)C2CC2)C(F)(F)F)ccc1OC[C@@H](C)O (single isomer, unassigned)", "1000 to 50000 nM"],
  ["COc1cc(C(=O)NCC(O)(c2cc3c(c(-c4ccc(F)cc4)n2)OCC3(C)N)C(F)(F)F)ccc1NC1CC1 (stereo not drawn)", "< 1000 nM"],
  ["COc1cc(C(=S)NCC(O)(c2cc3c(c(-c4ccc(F)cc4)n2)OCC3(C)N)C(F)(F)F)ccc1OCCO (stereo not drawn)", "< 1000 nM"],
  ["COc1cc(C(=O)NCC(O)(c2cc3c(c(-c4ccc(F)cc4)n2)OCCC3(N)C2CC2)C(F)(F)F)ccc1OC[C@@H](C)O (stereo partly drawn)", "< 1000 nM"],
  ["COc1cc(C(=O)NCC(O)(c2cc(C3(C)COCCN3)cc(-c3ccc(F)cc3)n2)C(F)(F)F)ccc1OCCO (stereo not drawn)", "< 1000 nM"],
  ["COc1cc(C(=O)NC[C@@](O)(c2cc3c(c(-c4ccc(F)cc4)n2)OC[C@@]3(C)N)C(F)(F)F)cc2ccc(CO)nc12", "< 1000 nM"]
]}
